- System: MS2 coat protein
- METHOD: apparent KD of MS2 coat protein; higher = weaker reporter binding
- DETAILS: Eterna round: R107; input ligand: none
MEASURED_ENDPOINT: apparent KD of MS2 coat protein

CGGUCGGUCGGUCGGUGAUUAUGGGAUGAAGGAGCGUGGGAAGCUACAGGUAGGUCGCAUCCGAAACAUGAGGAUCACCCAUGUU [#21 Same State - Arginine A]: 21 nM
AGGACGGUCGGAAGGAGCGGUACAUGAGGAUCACCCAUGUACCUCUGGGCAUCCGUAGUGUGCCAGGUAGGUCGCCGAUUGCGGG [Lareerra]: 12 nM
GUGCGGUUUGAUGAUACCAGAUGUGGUGGGAACAUGAGGAUCACCCAUGUUGUGAAACAGGUCCCUUGGCAGCAUGAGUGAGCUU [TheoB-ms2@32-1]: 103 nM
AAAAUAAAACGUGCAAAAUCCUAAUGUGAAGGAGCGCACGAAAGUGCAGGUAGGUCGCACAUGAGGAUCACCCAUGUAGCACGAA [MAT - Exclusion Arginine A - Mod of Eli - D1]: 300 nM
GCUGCUUUGGGAAGGAGCGCUGUGGUAGUGUGGCGGACAUGAGGAUCACCCAUGUGCCUGCAGCAGGUAGGUCGCUUAGGGCAGC [EAP NP+V+V2 #16]: 24.5 nM

Would you be so kind as to report apparent KD of MS2 coat protein for each listed record?
1. CCUAUGCAGUCGGCCGCCACUGAAAUCAAUAAGAUUACCUCAGAAACAUGAGGAUCACCCAUGUACAGGACCGGGACUGUAUAGG [Ex Tryptophan B 16]
2. GGGCCUACCUGAAGGAGCGACAUGAGGAUCACCCAUGUCUCCCGUUAUGGGAGUUCUUUAGGUCAGGUAGGUCGCAGGUAGGGCC [#1 Exclusion - Arginine B Attempt #4 (Inspired by Omei)]
3. CGAAAGCACAUGGGUUGCUUUCGACUGGAAGGAGCGAGCGAAAGCUCAGGUAGGUCGCCAGAAACAUGAGGAUCACCCAUGUAAU [(A)''-(M)'-(A)'(Arg1)-(Arg2)-(M1)-(M2)_Design10]
4. UCGCUCGCCGAAAGGCGAGCGAGUUGCGAUACCAGCCCGGAAACGGGCCCUUGGCAGCGCACAUGAGGAUCACCCAUGUCAUGUU [#1 Exclusion - Theophylline A Attempt #3 (HarryS)]
5. AACUGGACCAGUGAUACCAGAGACAUGAGGAUCACCCAUGUACAUGAGGAUCACCCAUGUCUCCCUUGGCAGCACAGCAGGGAGC [Exclusion Theophylline B Gf12]

Ans.
40 nM
12.6 nM
18.3 nM
19.4 nM
117 nM

Qu. Query for MS2 coat protein: what apparent KD of MS2 coat protein does the record show for GCUAGGUCUACGGCCGCCACUAGACGUGGGUAAGACAUGAGGAUCACCCAUGUACUACGGGCGAUUAGGACCGGGUAGACCUAGC [SSTB NP+V+V2 #16 Same Structure] ?
Ans. 309 nM

====

- Tested on: K4 kissing-loop RNA reporter;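 further: bound reporter read as fluorescence of individual clusters on recovered sequencing chips by microscopy, with normalized cluster intensities fitted with a binding model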
- METHOD: apparent KD of K4 kissing-loop reporter; higher = weaker reporter binding
- DETAILS: Eterna round: R107; input ligand: arginine 13.2 mM
MEASURED_ENDPOINT: apparent KD of K4 kissing-loop reporter (nM)
Give bare numbers, in nM.

Below, each entry is followed by its recorded apparent KD of K4 kissing-loop reporter result.
GGAGAGAACUGAAGGAGCGGCAAGAGAGAAGGAAAUAUAGUGAUGUUAUAUAAGAGAGAGAGCCAGGUAGGUCGCAGAGGGAGGA [ExArgB.A]: 153
GUCCCGAGUGAUGUUCGGGUCGUUUGGGAAGGAGCGCCCGGAAGGGCAGGUAGGUCGCCCGGACCCUGCAGGUAACUGUUGGGCC [#2 Same State - Arginine A Attempt #19 (HarryS)]: 154

Consider the record given below.
Qu. Consider the sequence shown here: CUGAGCCUGACGUAAGUCAGGCUCUGCGAGCGAGGACCGGUACGGCCGCCACUCGGUGCAGUGAUGUUGCAUGGCCGCAAGGCCG [#2 Exclusion - Tryptophan A Attempt #19 (HarryS)] What is its recorded apparent KD of K4 kissing-loop reporter?
Ans. 246
